Data origin, for the record: patent US8822517B2

Reported values of inhibition at 1 µM for individual entries
Target: serotoninergic 5-HT7 receptor (Homo sapiens, UniProt P34969)
Sequence (P34969 whole entry): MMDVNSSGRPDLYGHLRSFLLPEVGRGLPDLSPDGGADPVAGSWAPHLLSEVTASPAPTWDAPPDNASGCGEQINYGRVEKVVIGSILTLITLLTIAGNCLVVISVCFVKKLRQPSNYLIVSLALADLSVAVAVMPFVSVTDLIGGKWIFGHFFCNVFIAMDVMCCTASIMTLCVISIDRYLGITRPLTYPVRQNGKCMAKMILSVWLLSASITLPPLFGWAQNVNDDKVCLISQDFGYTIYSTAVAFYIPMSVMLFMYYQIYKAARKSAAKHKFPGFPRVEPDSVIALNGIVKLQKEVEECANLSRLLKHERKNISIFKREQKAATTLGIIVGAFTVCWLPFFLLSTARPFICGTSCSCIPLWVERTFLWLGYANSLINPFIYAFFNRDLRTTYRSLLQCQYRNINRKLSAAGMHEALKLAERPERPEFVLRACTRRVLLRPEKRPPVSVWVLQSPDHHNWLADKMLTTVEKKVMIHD
Test: Cellular functional assay, serotoninergic 5-HT7 receptor (agonism/antagonism)
Format: cell-based
Conditions: read-out: 5-HT7-antag. [%]
quantityName: inhibition at 1 µM (%)

| molecule | quantityName | reading |
| --- | --- | --- |
| O=S(=O)(NCCCCN1CCN(c2cccc3[nH]ccc23)CC1)c1cnc2ccccn12 | inhibition at 1 µM | 73 |
| O=S(=O)(NCCCCN1CCN(c2nsc3ccccc23)CC1)c1cc2ccccc2s1 | inhibition at 1 µM | 81 |
| O=S(=O)(NCCCCN1CCN(c2cccc3[nH]ccc23)CC1)c1ccccc1 | inhibition at 1 µM | 8 |
| O=S(=O)(NCCCN1CCN(c2nsc3ccccc23)CC1)c1cccc2ccccc12 | inhibition at 1 µM | 85 |
| O=S(=O)(NCCCCN1CCN(c2cccc3[nH]ccc23)CC1)c1ccc2ccccc2c1 | inhibition at 1 µM | 13 |
| Cc1c(S(=O)(=O)NCCCCN2CCN(c3noc4ccccc34)CC2)sc2ccc(F)cc12 | inhibition at 1 µM | 98 |
| O=S(=O)(NCCCCN1CCN(c2cccc3[nH]ccc23)CC1)c1ccc2cc(Cl)ccc2c1 | inhibition at 1 µM | 28 |
| O=S(=O)(NCCCN1CCC(c2noc3cc(F)ccc23)CC1)c1cccc2ccccc12 | inhibition at 1 µM | 101 |
| O=S(=O)(NCCN1CCC(c2noc3cc(F)ccc23)CC1)c1ccc2ccccc2c1 | inhibition at 1 µM | 99 |
| Cc1c(S(=O)(=O)NCCCCN2CCC(c3noc4cc(F)ccc34)CC2)sc2ccc(F)cc12 | inhibition at 1 µM | 101 |
| O=S(=O)(NCCCN1CCN(c2nsc3ccccc23)CC1)c1ccc2ccccc2c1 | inhibition at 1 µM | 66 |
| O=S(=O)(NCCCCN1CCC(c2noc3cc(F)ccc23)CC1)c1cc2ccc(Cl)cc2s1 | inhibition at 1 µM | 95 |
| O=S(=O)(NCCCCN1CCC(c2noc3cc(F)ccc23)CC1)c1ccc2ccccc2c1 | inhibition at 1 µM | 89 |

* * *

inhibition at 1 µM reference
Biological target: dopaminergic D2 receptor (Homo sapiens)
Sequence (P14416 1-414 isoform P14416-2): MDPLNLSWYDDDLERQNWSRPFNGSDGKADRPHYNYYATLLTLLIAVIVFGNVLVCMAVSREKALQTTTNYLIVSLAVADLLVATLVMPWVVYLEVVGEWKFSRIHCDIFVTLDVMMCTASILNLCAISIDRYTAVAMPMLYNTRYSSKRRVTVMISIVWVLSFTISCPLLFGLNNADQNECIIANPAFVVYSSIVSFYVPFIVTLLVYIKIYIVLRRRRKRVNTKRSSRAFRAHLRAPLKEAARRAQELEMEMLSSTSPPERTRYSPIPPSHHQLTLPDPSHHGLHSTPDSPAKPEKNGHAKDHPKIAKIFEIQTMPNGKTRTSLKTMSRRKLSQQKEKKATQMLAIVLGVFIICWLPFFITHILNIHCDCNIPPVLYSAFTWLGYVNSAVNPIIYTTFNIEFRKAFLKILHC
Experiment: Binding assay D2S (h), [3H]methyl-spiperone, HEK-293 cells
Set-up: expressed in transfected cells; host or cells: HEK-293 cells
Details: read-out: D2 [%]
quantityName: inhibition at 1 µM (%)

| molecule | quantityName | reading |
| --- | --- | --- |
| O=S(=O)(NCCCN1CCC(c2noc3cc(F)ccc23)CC1)c1ccc(Cl)cc1 | inhibition at 1 µM | 108 |
| O=S(=O)(NCCN1CCC(c2noc3cc(F)ccc23)CC1)c1ccc2ccccc2c1 | inhibition at 1 µM | 99 |
| O=S(=O)(NCCCCN1CCN(c2nsc3ccccc23)CC1)c1cccc2scnc12 | inhibition at 1 µM | 100 |
| O=S(=O)(NCCCCN1CCN(c2nsc3ccccc23)CC1)c1ccc(C(F)(F)F)cc1 | inhibition at 1 µM | 85 |
| Cc1c(S(=O)(=O)NCCCCN2CCC(c3noc4cc(F)ccc34)CC2)sc2ccc(Cl)cc12 | inhibition at 1 µM | 99 |
| O=S(=O)(NCCCCN1CCN(c2nsc3ccccc23)CC1)c1cnc2ccccn12 | inhibition at 1 µM | 98 |
| CC(C)(C)c1ccc(S(=O)(=O)NCCCCN2CCC(c3noc4cc(F)ccc34)CC2)cc1 | inhibition at 1 µM | 96 |
| Cc1cc(S(=O)(=O)NCCCN2CCC(c3noc4cc(F)ccc34)CC2)c(C)s1 | inhibition at 1 µM | 106 |
